Collected logD values appear next to each entry.
- Assay Notes: method code SF-HPLC, from PMID: 1388632
- Run Parameters: pH 7.4

Consider the reported logD for these compounds:
CCCC(=O)OCc1c2c(n3c1C(OC(=O)CCC)CC3)C(=O)C(C)=C(C(C)=O)C2=O (centres undefined): 4
CC(=O)C1=CC(=O)c2c(c(CO)c3n2CCC3O)C1=O (centres undefined): -0.09
CC(=O)C1=C(C)C(=O)c2c(c(CO)c3n2CCC3O)C1=O (centres undefined): 1.14
CC(=O)C1=CC(=O)c2c(c(CO)c3n2CCCC3O)C1=O (centres undefined): 0.37
CC(=O)OCc1c2c(n3c1C(OC(C)=O)CC3)C(=O)C(C)=C(N1CC1)C2=O (centres undefined): 1.75
CC(=O)OCc1c2c(n3c1C(OC(C)=O)CC3)C(=O)C=C(C(C)=O)C2=O (centres undefined): 1.15
CC(=O)OCc1c2c(n3c1C(O)CCC3)C(=O)C=C(C(C)=O)C2=O (centres undefined): 0.89
CC(=O)OCc1c2c(n3c1CCC3)C(=O)C(C)=C(C(C)=O)C2=O: 2.81

Tell us which logD value is on record for CCNC(=O)OCc1c2c(n3c1C(O)CC3)C(=O)C(C)=C(OC)C2=O (centres undefined)
1.83

Data origin, for the record: the SangsterLogP compilation
